# target under test: Mcl-1/Bim interaction, recombinant human Mcl-1 (171-327) (Homo sapiens, UniProt Q07820)
# Construct: made in house
# Sequence (Q07820 171-327): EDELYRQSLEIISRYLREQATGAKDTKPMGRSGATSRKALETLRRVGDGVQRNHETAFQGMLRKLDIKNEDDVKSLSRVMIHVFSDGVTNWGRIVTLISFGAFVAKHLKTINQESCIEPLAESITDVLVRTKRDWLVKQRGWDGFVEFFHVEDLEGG
# protocol summary: Cell free Mcl-1: Bim Affinity Assay (Mcl-1 HTRF)
# Format: binding
# assay setup: cell free Mcl-1:Bim TR-FRET, recombinant human Mcl-1 (171-327)
Label key: yes (1) means IC50 under 0.7 nM; no (0) means IC50 of 0.7 nM or more.

These recorded examples may help you get a feel for the data.
>  <molecule>
CO[C@H]1/C=C/C[C@@H]2C[C@H]2S(=O)(=O)NC(=O)c2ccc3c(c2)N(C[C@@H]2CC[C@H]21)C[C@@]1(CCCc2cc(Cl)ccc21)CO3 (single isomer, unassigned) [Example 803]

>  <assigned category>
no (0)

$$$$
>  <molecule>
O=C1NS(=O)(=O)CC/C=C\C[C@H](O)[C@@H]2CC[C@H]2CN2C[C@@]3(CCCc4ccccc43)COc3ccc1cc32 [Example 807]

>  <assigned category>
no (0)

$$$$
>  <molecule>
COCCO[C@H]1/C=C/C[C@@H]2C[C@H]2S(=O)(=O)NC(=O)c2ccc3c(c2)N(C[C@@H]2CC[C@H]21)C[C@@]1(CCCc2cc(Cl)ccc21)CO3 (single isomer, unassigned) [Example 786]

>  <assigned category>
no (0)

$$$$

I'd appreciate it if you could check whether CC[C@H]1CC/C=C/[C@H](O)[C@@H]2CC[C@H]2CN2C[C@@]3(CCc4cc(Cl)ccc43)COc3ccc(cc32)C(=O)NS1(=O)=O (single isomer, unassigned) [Example 699] has IC50 smaller than 0.7 nM.
yes (1)

I'd appreciate it if you could check whether CO[C@H]1/C=C/C[C@H]2C[C@@H]2S(=O)(=O)NC(=O)c2ccc3c(c2)N(C[C@@H]2CC[C@H]21)C[C@@]1(CCCc2cc(Cl)ccc21)CO3 (single isomer, unassigned) [Example 804] has IC50 smaller than 0.7 nM.
yes (1)
